target: human αvβ5 expressed on BaF3 cells (stably transfected with human αv and β5 subunits) (human, UniProt P06756 31-1048; P18084 24-799); test: cell-based or functional assay
Sequence (P06756 31-1048 limits assumed, chain 1 of 2): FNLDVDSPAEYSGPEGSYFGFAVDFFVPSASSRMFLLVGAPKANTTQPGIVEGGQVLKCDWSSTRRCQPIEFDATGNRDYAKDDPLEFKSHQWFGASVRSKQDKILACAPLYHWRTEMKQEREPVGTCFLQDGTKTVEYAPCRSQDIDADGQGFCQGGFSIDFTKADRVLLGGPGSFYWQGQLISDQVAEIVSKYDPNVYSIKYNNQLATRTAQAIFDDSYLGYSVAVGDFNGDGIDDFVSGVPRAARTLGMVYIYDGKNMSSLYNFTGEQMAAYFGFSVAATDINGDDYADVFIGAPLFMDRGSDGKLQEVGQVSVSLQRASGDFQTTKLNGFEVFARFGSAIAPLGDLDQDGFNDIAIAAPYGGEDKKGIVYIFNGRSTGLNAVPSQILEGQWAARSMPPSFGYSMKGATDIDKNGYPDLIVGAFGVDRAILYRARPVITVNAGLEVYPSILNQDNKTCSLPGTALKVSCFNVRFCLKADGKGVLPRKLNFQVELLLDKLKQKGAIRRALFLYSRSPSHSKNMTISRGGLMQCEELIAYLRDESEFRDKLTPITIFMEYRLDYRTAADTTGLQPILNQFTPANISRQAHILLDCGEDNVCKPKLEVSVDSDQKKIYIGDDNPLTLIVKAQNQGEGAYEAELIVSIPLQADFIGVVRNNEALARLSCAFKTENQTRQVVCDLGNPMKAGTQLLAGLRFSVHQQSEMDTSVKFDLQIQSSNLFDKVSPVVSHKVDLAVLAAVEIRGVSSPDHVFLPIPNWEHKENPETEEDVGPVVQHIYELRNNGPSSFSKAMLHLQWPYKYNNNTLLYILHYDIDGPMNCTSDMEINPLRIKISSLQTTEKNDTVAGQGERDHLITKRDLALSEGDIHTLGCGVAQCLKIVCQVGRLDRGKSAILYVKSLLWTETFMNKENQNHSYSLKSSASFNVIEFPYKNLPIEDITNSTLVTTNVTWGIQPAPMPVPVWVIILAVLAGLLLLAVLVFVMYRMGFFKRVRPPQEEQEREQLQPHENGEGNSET
Sequence (P18084 24-799 limits assumed, chain 2 of 2): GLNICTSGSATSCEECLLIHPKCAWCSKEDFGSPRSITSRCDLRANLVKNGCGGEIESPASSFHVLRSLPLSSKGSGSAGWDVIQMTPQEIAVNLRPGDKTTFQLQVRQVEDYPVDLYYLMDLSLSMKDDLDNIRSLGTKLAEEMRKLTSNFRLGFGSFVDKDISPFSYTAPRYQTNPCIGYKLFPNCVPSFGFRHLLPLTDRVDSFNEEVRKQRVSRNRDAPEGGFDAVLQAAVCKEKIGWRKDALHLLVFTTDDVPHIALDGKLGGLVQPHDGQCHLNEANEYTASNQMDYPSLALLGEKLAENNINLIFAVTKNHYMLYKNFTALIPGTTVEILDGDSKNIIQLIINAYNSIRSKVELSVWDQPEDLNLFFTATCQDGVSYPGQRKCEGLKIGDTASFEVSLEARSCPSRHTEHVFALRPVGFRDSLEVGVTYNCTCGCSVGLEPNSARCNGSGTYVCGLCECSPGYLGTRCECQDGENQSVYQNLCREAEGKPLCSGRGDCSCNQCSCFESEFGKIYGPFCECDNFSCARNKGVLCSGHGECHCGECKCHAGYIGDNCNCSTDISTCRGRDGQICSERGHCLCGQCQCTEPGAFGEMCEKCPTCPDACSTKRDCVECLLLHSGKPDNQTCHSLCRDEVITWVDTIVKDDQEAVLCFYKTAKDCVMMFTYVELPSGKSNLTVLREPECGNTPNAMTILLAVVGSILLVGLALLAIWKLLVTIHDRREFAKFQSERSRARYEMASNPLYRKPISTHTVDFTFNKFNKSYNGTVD
Returns fulfilled if the recorded VN adhesion inhibition, αvβ5-BaF3 (IC50, nM) is greater than or equal to 0.9 nM, and not fulfilled otherwise.

{"columns": ["Binder", "Answer label"],
 "data": [
  ["VH4/VL1 Agly-hIgG1(T299A) (antibody, V domains shown, also called H4/L1) VH: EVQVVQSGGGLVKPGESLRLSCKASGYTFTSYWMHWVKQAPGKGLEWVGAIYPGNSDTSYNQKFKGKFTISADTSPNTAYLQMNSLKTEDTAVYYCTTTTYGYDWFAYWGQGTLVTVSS VL: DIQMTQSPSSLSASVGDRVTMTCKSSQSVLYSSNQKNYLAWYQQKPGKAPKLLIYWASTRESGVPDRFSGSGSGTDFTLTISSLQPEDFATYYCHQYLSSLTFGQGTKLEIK", "fulfilled"],
  ["VH5/VL1 Agly-hIgG1(T299A) (antibody, V domains shown, also called H5/L1) VH: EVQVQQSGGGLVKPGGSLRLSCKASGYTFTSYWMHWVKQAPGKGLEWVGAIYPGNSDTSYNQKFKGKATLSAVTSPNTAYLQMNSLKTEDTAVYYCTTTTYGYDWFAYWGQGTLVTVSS VL: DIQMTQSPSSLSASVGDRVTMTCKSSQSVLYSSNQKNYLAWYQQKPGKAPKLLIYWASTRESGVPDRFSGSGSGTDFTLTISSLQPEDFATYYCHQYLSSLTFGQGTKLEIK", "not fulfilled"],
  ["VH0/VL0 Agly-hIgG1(T299A) (antibody, V domains shown, also called H0/L0) VH: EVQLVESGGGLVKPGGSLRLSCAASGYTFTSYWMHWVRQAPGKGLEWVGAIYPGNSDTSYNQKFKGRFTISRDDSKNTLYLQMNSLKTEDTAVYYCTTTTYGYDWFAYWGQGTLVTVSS VL: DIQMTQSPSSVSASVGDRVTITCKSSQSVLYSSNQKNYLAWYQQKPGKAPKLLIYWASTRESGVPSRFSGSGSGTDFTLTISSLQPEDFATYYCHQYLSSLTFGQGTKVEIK", "fulfilled"],
  ["VH3/VL2 Agly-hIgG1(T299A) (antibody, V domains shown, also called H3/L2) VH: EVQVVESGGGLVKPGGSLRLSCKASGYTFTSYWMHWVKQAPGKGLEWVGAIYPGNSDTSYNQKFKGKFTLSAVTSSNTAYLQMNSLKTEDTAVYYCTTTTYGYDWFAYWGQGTLVTVSS VL: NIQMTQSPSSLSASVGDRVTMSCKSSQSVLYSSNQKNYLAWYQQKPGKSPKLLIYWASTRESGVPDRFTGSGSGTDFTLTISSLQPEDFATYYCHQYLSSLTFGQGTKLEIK", "not fulfilled"]
]}

API: the following record is the query input.
-- ask Is the recorded value of VN adhesion inhibition, αvβ5-BaF3 (IC50, nM) equal to or greater than 0.9 nM for this binder? VH2/VL2 Agly-hIgG1(T299A) (antibody, V domains shown, also called H2/L2 (Agly-IgG1)) VH: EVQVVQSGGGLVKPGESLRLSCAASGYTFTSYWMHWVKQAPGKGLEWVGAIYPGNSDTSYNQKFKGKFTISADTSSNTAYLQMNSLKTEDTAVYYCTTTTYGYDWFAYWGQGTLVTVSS VL: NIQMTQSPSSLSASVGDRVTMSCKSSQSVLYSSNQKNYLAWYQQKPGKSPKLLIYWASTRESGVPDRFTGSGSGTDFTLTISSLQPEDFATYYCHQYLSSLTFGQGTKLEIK
-- reply not fulfilled
